# System: thyroid hormone receptor (rat, GH3 cells)
# TEST PROTOCOL: qHTS assay to identify small molecule agonists of the thyroid receptor (TR) signaling pathway (AID 743066)
# SETUP CONDITIONS: GH3.TRE-Luc cells, TR agonist luciferase, 24 h; series mostly up to 83.9 µM
Records with an inconclusive call do not appear. The source made the active and inactive calls. The call rests on the fitted dose curve.
EXPERIMENTAL ENDPOINT: outcome

CCCCCCCCC/C=C/CC1CC(=O)OC1=O (stereo not drawn) :: inactive
O=C(O)c1ccc(C(=O)O)cc1 :: inactive
CC[C@H](C)C(=O)O[C@H]1C[C@@H](C)C=C2C=C[C@H](C)[C@H](CC[C@@H]3C[C@@H](O)CC(=O)O3)[C@H]21 :: inactive

* * *

# SYSTEM TESTED: Estrogen receptor (Homo sapiens)
# TEST PROTOCOL: qHTS assay to identify small molecule antagonists of the estrogen receptor alpha (ER-alpha) signaling pathway using the BG1 cell line in the presence of 0.1 nM 17-beta-estradiol (AID 1259244); further: nearly all actives have a fitted effect of over 50% in size
# SETUP CONDITIONS: VM7Luc4E2 (BG1) ERE-luciferase, antagonist mode, 0.1 nM E2, 22 h; series mostly up to 92.4 µM
Results filed as inconclusive are left out. Calls of active or inactive are those of the source. The call rests on the fitted dose curve; in most records, active means well fitted inhibition curve with a large enough effect in the repeat runs; inconclusive means weak or mixed curves; inactive means no such curve, though single readings can be large or run the other way.
Valid outcomes are listed here; reply with one: 1 (yes) (active), 0 (no) (inactive)

CCc1cccc(C)c1N :: 0 (no)
O=C=NCCCCCCN=C=O :: 0 (no)
OCc1cccnc1 :: 0 (no)
C=C(C)C(=O)Nc1ccc(Cl)c(Cl)c1 :: 1 (yes)
CCOC(=O)NNc1nncc2ccccc12 :: 0 (no)

Would you mind telling me which call this test gave Cc1cccc(O)c1 ? 0 (no)

Would you mind telling me which call this test gave O=C(O)c1cc(O)c(O)c(O)c1 ? 0 (no)

Would you mind telling me which call this test gave CC(=O)Nc1cccc(O)c1 ? 0 (no)

Would you mind telling me which call this test gave CCCCCCOCCO ? 0 (no)

Would you mind telling me which call this test gave CC(O)COCC(C)O (configuration not stated) ? 0 (no)

Would you mind telling me which call this test gave O=C(O)CCCC[C@@H]1SC[C@@H]2NC(=O)N[C@@H]21 ? 0 (no)

Would you mind telling me which call this test gave CCC(O)OC(O)CC (configuration not stated) ? 0 (no)

Would you mind telling me which call this test gave C#CCN(C)Cc1ccccc1 ? 0 (no)

// provenance: PubChem BioAssay (Tox21)
